System: Streptococcus pneumoniae
method_description: Determination of MIC values (BHI broth, 96 well microtiter plate)
Format: cell-based
condition_description: Streptococcus pneumoniae; S. pneu; BHI broth, overnight 37° C.; read-out: MIC S. pneu
assay_metric: MIC

Sample records with MIC:
[[record]]
compound = "NCc1ccc(CNC(=O)c2cc(-c3c[nH]c4ccc(Br)cc34)nc3cc(C#CCN4CCSCC4)ccc23)cc1 [Example 270]"
observed = "> 25 µg/mL"

[[record]]
compound = "Cn1cc(-c2cc(C(=O)NCc3ccc(CN)cc3)c3cc(C#CCNCC4CCCCC4)ccc3n2)c2cc(Br)ccc21 [Example 391]"
observed = "< 7 µg/mL"


MIC value, target or system Streptococcus pneumoniae, for Cn1cc(-c2cc(C(=O)NC3CCC(N)CC3)c3ccc(I)cc3n2)c2cc(Br)ccc21 (stereo not shown) [Example 333] : < 7 µg/mL

MIC value, target or system Streptococcus pneumoniae, for NCC1CCCC(CNC(=O)c2cc(-c3c[nH]c4ccc(Br)cc34)nc3c(Cl)c(Cl)ccc23)C1 (stereo not shown) [Example 278] : < 7 µg/mL

====

Tested on: Streptococcus pneumoniae
method_description: Determination of MIC values (BHI broth, 96 well microtiter plate)
Type: cell-based
condition_description: Streptococcus pneumoniae; BHI broth, 37° C., about 16 hours; read-out: MIC S. pneu
The entries below come with measured MIC values attached.

Sample records with MIC:
[[record]]
molecule = "Cc1cccc2c(-c3cc(Cl)c4ccc(Cl)cc4n3)c[nH]c12"
assay_metric = "MIC"
observed = "< 25 µg/mL"

[[record]]
molecule = "CN1CCN(CC#Cc2ccc3nc(-c4cn(C)c5ccc(Br)cc45)cc(C(=O)NCCN)c3c2)CC1"
assay_metric = "MIC"
observed = "< 25 µg/mL"

[[record]]
molecule = "Fc1ccc2c(-c3cc(Cl)c4ccc(Cl)cc4n3)c[nH]c2c1"
assay_metric = "MIC"
observed = "< 7 µg/mL"

[[record]]
molecule = "NCCCCCNC(=O)c1cc(-c2c[nH]c3cc(F)ccc23)nc2cc(F)ccc12"
assay_metric = "MIC"
observed = "< 25 µg/mL"


GET /value?item= `OCc1cc(-c2c[nH]c3ccc(Br)cc23)nc2c(Br)cccc12` &field=MIC returns < 7 µg/mL

GET /value?item= `COc1ccc2nc(-c3c(C)[nH]c4ccc(Cl)cc34)ccc2c1` &field=MIC returns < 7 µg/mL

GET /value?item= `COc1ccc2nc(-c3c[nH]c4cc(Cl)ccc34)ccc2c1` &field=MIC returns > 25 µg/mL

GET /value?item= `Cc1ccc2nc(-c3c(C)[nH]c4ccccc34)ccc2c1` &field=MIC returns < 25 µg/mL

GET /value?item= `Cn1cc(-c2cc(C(=O)NCCN)c3cc(C#CCN4CCCC4)ccc3n2)c2cc(Br)ccc21` &field=MIC returns < 7 µg/mL

GET /value?item= `CC(C)(C)NC(=O)NCc1cc(-c2c[nH]c3ccc(Br)cc23)nc2cc(Cl)ccc12` &field=MIC returns < 7 µg/mL

GET /value?item= `Cc1ccc2nc(-c3c[nH]c4cc(Cl)ccc34)ccc2c1` &field=MIC returns < 7 µg/mL

GET /value?item= `Cn1cc(-c2cc(C(=O)NCCN)c3cc(C#CCNCC4CCCCC4)ccc3n2)c2cc(Br)ccc21` &field=MIC returns < 7 µg/mL

GET /value?item= `COc1ccc2nc(-c3c[nH]c4cc(F)ccc34)ccc2c1` &field=MIC returns > 25 µg/mL

GET /value?item= `NCc1cccc(CNC(=O)c2cc(-c3c[nH]c4cc(F)ccc34)nc3cc(F)ccc23)c1` &field=MIC returns < 7 µg/mL

GET /value?item= `CNCCN(C)C(=O)c1cc(-c2c[nH]c3ccc(Br)cc23)nc2cc(Cl)ccc12` &field=MIC returns < 7 µg/mL

GET /value?item= `COc1ccc2[nH]cc(-c3ccc4cc(C)ccc4n3)c2c1` &field=MIC returns > 25 µg/mL

GET /value?item= `Cc1ccc2nc(-c3c[nH]c4ccc(Cl)cc34)ccc2c1` &field=MIC returns > 25 µg/mL

GET /value?item= `NCCNC(=O)c1cc(-c2c[nH]c3ccc(Br)cc23)nc2cc(Cl)c(C#CCNCCc3ccccc3)cc12` &field=MIC returns < 7 µg/mL

GET /value?item= NCC(O)CNC(=O)c1cc(-c2c[nH]c3ccc(Br)cc23)nc2ccc(C#CCN3CCCCC3)cc12 (stereo not drawn) &field=MIC returns < 7 µg/mL
